System: LXRb:RXRa (NR concentration 270 nM, RXRa partner concentration 90 nM)
assay text: PBM binding z-score (relative to random genomic background probes); higher = stronger binding; sequences stand for … in GC…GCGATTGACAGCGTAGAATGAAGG
reported metric: PBM binding z-score
# answer = number (no unit)

If you can, please state the reported PBM binding z-score value of CGAACTAGGTCAGAACCGGACAGTGAAGGATGAT .
0.198

Query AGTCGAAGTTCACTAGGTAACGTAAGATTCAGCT next
1.03

Query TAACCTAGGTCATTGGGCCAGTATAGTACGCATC next
3.43

Query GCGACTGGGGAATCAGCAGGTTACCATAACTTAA next
0.0771

Query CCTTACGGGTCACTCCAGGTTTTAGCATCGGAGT next
2.85

Kindly consider the entry below.
If you can, please state the reported PBM binding z-score value of TCTGCTAGATCAGTTGGTCAGCTAACGAGCTGCC .
-0.988

----------
Test system: PPARg:RXRa IVT, anti-PPARg (NR concentration 270 nM, RXRa partner concentration 90 nM)
assay text: PBM binding z-score (relative to random genomic background probes); higher = stronger binding; sequences stand for … in GC…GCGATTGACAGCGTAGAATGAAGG
Short version: PBM binding z-score at least 1 is 1, less is -1.

Examples from the recorded data:
Does the sequence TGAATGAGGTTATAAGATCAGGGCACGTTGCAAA have recorded PBM binding z-score that is 1 or more?
1

Query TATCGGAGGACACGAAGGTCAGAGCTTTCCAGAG next
1

Query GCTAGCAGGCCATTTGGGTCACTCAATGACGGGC next
1

Query ACAGACAGGGGATGAAGGTAACTCAGGCTATCAT next
-1

Query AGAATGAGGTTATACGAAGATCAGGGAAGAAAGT next
1

Others:
Does the sequence TCTCGGAGGACACGAAAGATCAGAGCTCGACATC have recorded PBM binding z-score that is 1 or more?
-1

Query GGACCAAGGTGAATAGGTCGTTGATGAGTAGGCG next
1

Query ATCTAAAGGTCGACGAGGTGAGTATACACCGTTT next
1

Query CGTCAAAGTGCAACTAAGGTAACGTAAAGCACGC next
-1

Query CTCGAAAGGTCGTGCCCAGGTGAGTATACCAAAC next
1

Query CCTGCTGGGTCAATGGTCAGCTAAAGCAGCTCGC next
1

Query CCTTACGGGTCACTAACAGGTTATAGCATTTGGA next
1

Query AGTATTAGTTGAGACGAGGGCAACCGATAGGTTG next
-1

Query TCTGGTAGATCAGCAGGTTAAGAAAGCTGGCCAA next
-1

Query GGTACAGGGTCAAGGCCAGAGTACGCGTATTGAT next
1

Query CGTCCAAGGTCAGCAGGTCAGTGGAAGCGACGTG next
1

Query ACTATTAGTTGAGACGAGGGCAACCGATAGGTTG next
-1

Query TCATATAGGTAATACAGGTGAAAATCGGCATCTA next
1

Query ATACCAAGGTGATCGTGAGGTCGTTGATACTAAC next
1

Query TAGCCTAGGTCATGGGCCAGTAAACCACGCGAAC next
1

Query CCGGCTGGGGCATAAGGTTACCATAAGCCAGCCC next
-1

Query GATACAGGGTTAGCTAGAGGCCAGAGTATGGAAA next
-1

Query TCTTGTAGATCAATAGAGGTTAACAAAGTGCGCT next
1

----------
Tested on: PPARg DBDmut:RXRa IVT, anti-PPARg (DBD mutation: PPARg1 K132A/R137A, NR concentration 270 nM, RXRa partner concentration 90 nM)
assay text: PBM binding z-score (relative to random genomic background probes); higher = stronger binding; sequences stand for … in GC…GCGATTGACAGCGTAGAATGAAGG
reported metric: PBM binding z-score

If you can, please state the reported PBM binding z-score value of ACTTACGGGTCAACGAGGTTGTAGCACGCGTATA .
2.28

Others:
If you can, please state the reported PBM binding z-score value of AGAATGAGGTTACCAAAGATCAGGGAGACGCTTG .
1.19

Query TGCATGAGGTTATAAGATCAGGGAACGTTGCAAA next
0.656

----------
System: PPARg DBDmut IVT, anti-PPARg (DBD mutation: PPARg1 K132A/R137A, NR concentration 270 nM)
assay text: PBM binding z-score (relative to random genomic background probes); higher = stronger binding; sequences stand for … in GC…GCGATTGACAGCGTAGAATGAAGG
# Lookup of reported PBM binding z-score keyed by entry
# answer = number (no unit)

As a guide, the following entries are already answered.
Value wanted: PBM binding z-score (PPARg DBDmut IVT, anti-PPARg (DBD mutation: PPARg1 K132A/R137A, NR concentration 270 nM)) of entry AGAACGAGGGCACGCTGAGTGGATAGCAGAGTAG
0.00545

Query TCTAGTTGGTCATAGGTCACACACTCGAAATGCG next
1.18

Query ACTAGCAGGCCAAGTTTGGGTCCCTCAAACAAAG next
-1.25

Query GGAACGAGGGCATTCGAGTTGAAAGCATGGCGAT next
-0.111

Query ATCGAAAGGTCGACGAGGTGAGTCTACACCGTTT next
0.606

Others:
Value wanted: PBM binding z-score (PPARg DBDmut IVT, anti-PPARg (DBD mutation: PPARg1 K132A/R137A, NR concentration 270 nM)) of entry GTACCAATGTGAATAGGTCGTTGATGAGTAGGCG
0.0422

Query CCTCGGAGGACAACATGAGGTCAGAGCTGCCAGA next
-1.02

----------
Test system: RXRa DBDmut IVT, anti-RXR (DBD mutation: RXRa K156A/R161A, NR concentration 90 nM)
assay text: PBM binding z-score (relative to random genomic background probes); higher = stronger binding; sequences stand for … in GC…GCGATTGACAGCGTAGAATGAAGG
# Lookup of reported PBM binding z-score keyed by entry
# answer = number (no unit)

As a guide, the following entries are already answered.
If you can, please state the reported PBM binding z-score value of ATACCTAGGTGATCGTGAGGTCGTTGATACTAAC .
0.641

Query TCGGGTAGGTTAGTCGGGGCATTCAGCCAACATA next
0.58

Query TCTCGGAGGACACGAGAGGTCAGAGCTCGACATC next
0.77

Query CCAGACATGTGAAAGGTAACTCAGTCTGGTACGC next
0.289

Query AATTCAGGGTCATCGTAGGCCAGAGTACGCACAG next
3.82

Others:
If you can, please state the reported PBM binding z-score value of AGAATGAGGTTATACCTAGATCAGGGAAGAAAGT .
1.51

----------
Tested on: PXR:RXRa (NR concentration 270 nM, RXRa partner concentration 90 nM)
assay text: PBM binding z-score (relative to random genomic background probes); higher = stronger binding; sequences stand for … in GC…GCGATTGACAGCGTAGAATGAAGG
reported metric: PBM binding z-score
# answer = number (no unit)

If you can, please state the reported PBM binding z-score value of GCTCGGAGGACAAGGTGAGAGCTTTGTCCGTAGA .
-0.472

Query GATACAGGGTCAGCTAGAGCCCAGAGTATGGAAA next
1.83

Query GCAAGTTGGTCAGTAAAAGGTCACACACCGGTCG next
5.2

Others:
If you can, please state the reported PBM binding z-score value of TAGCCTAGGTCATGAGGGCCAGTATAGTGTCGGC .
1.6

Query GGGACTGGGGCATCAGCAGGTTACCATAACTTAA next
1.12

Query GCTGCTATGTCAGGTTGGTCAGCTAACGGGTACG next
-0.319

----------
System: RXRa homodimer (NR concentration 180 nM)
assay text: PBM binding z-score (relative to random genomic background probes); higher = stronger binding; sequences stand for … in GC…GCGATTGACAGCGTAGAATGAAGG
reported metric: PBM binding z-score

If you can, please state the reported PBM binding z-score value of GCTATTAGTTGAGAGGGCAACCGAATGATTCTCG .
0.882

Kindly consider the entry below.
If you can, please state the reported PBM binding z-score value of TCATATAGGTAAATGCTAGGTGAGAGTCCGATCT .
0.42

----------
System: PPARg:RXRa (NR concentration 180 nM, RXRa partner concentration 90 nM)
assay text: PBM binding z-score (relative to random genomic background probes); higher = stronger binding; sequences stand for … in GC…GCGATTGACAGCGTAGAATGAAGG
Short version: PBM binding z-score at least 3 is Yes, less is No.

Does the sequence TCTTGTATATCAAAGGTTAAGAAAGCCGAAGCCT have recorded PBM binding z-score that is 3 or more?
Yes

Query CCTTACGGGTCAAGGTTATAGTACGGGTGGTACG next
Yes

Query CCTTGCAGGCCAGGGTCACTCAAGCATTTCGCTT next
No

Others:
Does the sequence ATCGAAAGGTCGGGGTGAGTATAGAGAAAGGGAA have recorded PBM binding z-score that is 3 or more?
No

Query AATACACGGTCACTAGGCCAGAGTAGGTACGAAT next
No

Query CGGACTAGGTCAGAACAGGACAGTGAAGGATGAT next
Yes
